# Test system: 10(3) cells with human mutant p53 construct 248
# assayName: Growth inhibition assay on isogenic murine fibroblast lines (96-well MTS)
# Format: cell-based
# statedConditions: cells with mutation p53^248
Form field: IC50 (one value per entry).

smilesData	testedTarget	IC50
C/C(=N\NC(=S)N1CCC1)c1ccccn1	10(3) cells with human mutant p53 construct 248	~0.1 µM

Attention now shifts to the item below.
Value of measured IC50 for the entry CC(=NNC(=S)N(C)C)c1ccccn1 : ~0.1 µM

====

# System: 10(3) cells with human mutant p53 construct 175
# assayName: Growth inhibition assay on isogenic murine fibroblast lines (96-well MTS)
# Assay type: cell-based
# statedConditions: cells carrying the p53^173 mutation (so in the source)
Form field: IC50 (one value per entry).

Field IC50 (system: 10(3) cells with human mutant p53 construct 175) for entry C/C(=N\NC(=S)N1CCC1)c1ccccn1 = ~10 nM

Field IC50 (system: 10(3) cells with human mutant p53 construct 175) for entry CC(=NNC(=S)N(C)C)c1ccccn1 = ~10 nM
